Entries annotated with measured GI50
- System: KM-20L2
- Measurement description: NCI tumour cell line growth inhibition, 48 h
The source made the active and inactive calls. No stated cut-off is given here; in the data, active = GI50 up to about 1.1 µM and inactive = higher.

Worked cases, answers included:
CC(C)(C)NNc1c([N+](=O)[O-])cnn(-c2ccccc2)c1=O: 6.44 µM (inactive)
NC(=O)OCC(COc1ccc(Cl)cc1)OC(=O)c1ccccc1Cl (stereo not given): 19.3 µM (inactive)
O=C1OC(=O)C([Se]c2ccccc2)=C1[Se]c1ccccc1: > 100 µM (inactive)
N#Cc1c(-c2ccc(Cl)c(Cl)c2)c(-c2ccc(Cl)c(Cl)c2)nn(CC(=O)O)c1=O: 24.2 µM (inactive)

-- ask Value lookup for GI50; key = `O=S(=O)(O)c1cc(S(=O)(=O)O)c2cc(/N=N/c3ccc(/N=N/c4ccc(/C=C/c5ccc(/N=[N+](/[O-])c6ccc(/C=C/c7ccc(/N=N/c8ccc(/N=N/c9ccc%10cc(S(=O)(=O)O)cc(S(=O)(=O)O)c%10c9)cc8)cc7S(=O)(=O)O)c(S(=O)(=O)O)c6)cc5S(=O)(=O)O)c(S(=O)(=O)O)c4)cc3)ccc2c1`
-- reply 58.9 µM (inactive)

-- ask Now give it for `COc1ccccc1/C=C/C(=O)c1sc(-c2cccnc2)nc1C` too.
-- reply > 100 µM (inactive)

-- ask Now give it for C/C(=N\N)C(CN1CCOCC1)C(c1ccccc1)c1c(O)c2ccccc2oc1=O (stereo not given) too.
-- reply > 100 µM (inactive)

-- ask Now give it for [O-][S+]1Nc2c(Cl)cc(Cl)c(Cl)c2S1 (stereo not given) too.
-- reply > 100 µM (inactive)

-- ask Now give it for `CCOC(=O)c1c[nH]c2c(ccc3nn(C)nc32)c1=O` too.
-- reply > 100 µM (inactive)

-- ask Now give it for `COc1cc(/C=C2\Cc3ccccc3C2=O)cc(OC)c1OC` too.
-- reply > 100 µM (inactive)

====

- System: UACC-62
- Measurement description: NCI tumour cell line growth inhibition, 48 h
Calls of active or inactive are those of the source. Rule as the data show it: active = GI50 up to about 1.1 µM and inactive = higher.
Measured property: GI50

COc1cccc(/N=N/C(=N/NC(=O)c2cc(Cl)ccc2O)c2ccc(N(CCC#N)CCC#N)cc2C)c1: 44.6 µM (inactive)
Cc1c(C(=O)CC(=O)C(=O)Nc2ccc(Cl)c(Cl)c2)[n+]([O-])c2ccccc2[n+]1[O-]: 17.3 µM (inactive)

-- ask Value lookup for GI50; key = `O=C1CCC2(CC1)SCCCS2`
-- reply > 100 µM (inactive)

-- ask Now give it for CC12OC3(C)OC(=O)C(c4ccccc4)(O1)C3(C)O2 (stereo not given) too.
-- reply > 100 µM (inactive)

-- ask Now give it for O=C1CC(c2cccc(Cl)c2)Nc2ccc(N3CCCC3)cc21 (stereo not given) too.
-- reply 0.0537 µM (active)

====

- System: LOX IMVI
- Measurement description: NCI tumour cell line growth inhibition, 48 h
Calls of active or inactive are those of the source. No stated cut-off is given here; in the data, active = GI50 up to about 1.1 µM and inactive = higher.
Measured property: GI50

Worked cases, answers included:
Clc1cccc2c1OCC1C(c3ccccc3)=NN(c3ccccc3)C21 (stereo not given): 39.7 µM (inactive)
O=C(C=P(c1ccccc1)(c1ccccc1)c1ccccc1)c1ccc(-c2cccc([N+](=O)[O-])c2)s1: 67 µM (inactive)
CCC(CCCN)Nc1cc(OC)cc2cccnc12 (stereo not given): > 100 µM (inactive)
COc1cc(/C=N/c2ccc(S(N)(=O)=O)cc2)cc(OC)c1: 46.6 µM (inactive)

-- ask Value lookup for GI50; key = `COC(=O)c1cc2c3c(c1)Oc1cc(C(=O)OC)cc4c1C3c1c(cc(C(=O)OC)cc1O4)O2`
-- reply 5.92 µM (inactive)

====

Entries annotated with measured GI50
- System: OVCAR-5
- Measurement description: NCI tumour cell line growth inhibition, 48 h
The source made the active and inactive calls. Cut-off read from the data, not from the text of the source: active = GI50 up to about 1.1 µM and inactive = higher.

Worked cases, answers included:
Nc1nc(N)c2cc(CNc3ccc(C(=O)NC(CC(=O)O)C(=O)O)c(Cl)c3)ccc2n1 (stereo not given): 0.191 µM (active)
O=c1cccc2n1CC1CNC[C@H]2C1: > 100 µM (inactive)
CC(=NNC(=S)Nc1ccc(C)cc1)c1cccc(C(C)=NNC(=S)Nc2ccc(C)cc2)n1: 60.5 µM (inactive)
COC(=O)C1(Cc2ccc(C)cc2)Cc2c(C)cccc2C1=O (stereo not given): 24.6 µM (inactive)
C/C(=N\NS(=O)(=O)c1c(C)cc(C)cc1C)c1ccc[n+]([O-])n1: 26.8 µM (inactive)
[O-][S+]1Nc2c(Cl)cc(Cl)c(Cl)c2S1 (stereo not given): > 100 µM (inactive)
COc1cccc(/N=N/C(=N/NC(=O)c2cc(Cl)ccc2O)c2ccc(N(CCC#N)CCC#N)cc2C)c1: > 100 µM (inactive)
NS(=O)(=O)c1nnc(NC(=O)Nc2ccc(Cl)c(Cl)c2)s1: 24.5 µM (inactive)

-- ask Value lookup for GI50; key = C/C(=N\N)C(CN1CCOCC1)C(c1ccccc1)c1c(O)c2ccccc2oc1=O (stereo not given)
-- reply > 100 µM (inactive)

-- ask Now give it for `O=C1/C(=C\c2c(-c3ccccc3)[nH]n(-c3ccccc3)c2=O)C(c2ccccc2)=NN1c1ccccc1` too.
-- reply > 100 µM (inactive)

====

- System: PC-3
- Measurement description: NCI tumour cell line growth inhibition, 48 h
The source made the active and inactive calls. No stated cut-off is given here; in the data, active = GI50 up to about 1.1 µM and inactive = higher.
Tick one outcome: yes for active, no for inactive

Below are worked cases with known answers.
COc1ccc(C(=O)/C=C/c2ccc(OCC#N)cc2)cc1OC: no
O=C(C1OC1c1ccc(Cl)cc1)C12CC3CC(CC(C3)C1)C2 (stereo not given): no
Cc1cc2c(cc1C)[n+]([O-])c(NCCCN(C)C)c(C#N)[n+]2[O-]: no
O=C(c1ccccc1)c1ccc(N2C(=O)/C(=C/c3cccc([N+](=O)[O-])c3)N=C2c2ccccc2)c(N2C(=O)/C(=C/c3cccc([N+](=O)[O-])c3)N=C2c2ccccc2)c1: no
Cc1ccc(NC(=O)c2cc(S(=O)(=O)Nc3nc4cccnc4[nH]3)c(SSc3cc(Cl)c(C(=O)Nc4ccc(C)cc4)cc3S(=O)(=O)Nc3nc4cccnc4[nH]3)cc2Cl)cc1: no
CCOP(=O)(/C=C/n1cc(C)c(=O)[nH]c1=O)OCC: no
COc1cccc2c1C(=O)c1c(O)c3c(c(O)c1C2=O)CC(O)(C(=O)CO)CC3OC1CC(N2CCOCC2C#N)C(O)C(C)O1 (stereo not given): yes
COc1ccc(C2CC(c3ccc(NS(=O)(=O)c4cc([N+](=O)[O-])ccc4C)cc3)=NN2S(=O)(=O)c2cc([N+](=O)[O-])ccc2C)cc1 (stereo not given): no

-- ask Just curious, what result did `O=S(=O)(c1cc(Cl)ccc1Cl)n1ccnc1` get here?
-- reply no

-- ask Now give it for `CC(C)SC(=S)Sc1c(Cl)c(Cl)nc(Cl)c1Cl` too.
-- reply no

-- ask Now give it for CC1=CCC([C@@](C)(O)CCCC(C)(C)N=C=S)CC1 (stereo not given in full) too.
-- reply no

-- ask Now give it for `c1ccc2c(c1)nc1n2CNC1` too.
-- reply no

-- ask Now give it for `CCOC(=O)[C@@H](Cc1ccc(CCl)cc1)NC(C)=O` too.
-- reply no

====

- Test system: Malme-3M
- Measurement description: NCI tumour cell line growth inhibition, 48 h
The source made the active and inactive calls. Rule as the data show it: active = GI50 up to about 1.1 µM and inactive = higher.
Measured property: GI50

C=C(C)[C@H]1C[C@@H]2O[C@@](O)(/C(C)=C\C(=O)/C=C(/C)C[C@H]3OC(=O)[C@@]24O[C@H]34)[C@@H]1O: > 100 µM (inactive)

-- ask Value lookup for GI50; key = `O=C1CCC2(CC1)SCCCS2`
-- reply > 100 µM (inactive)

-- ask Now give it for C=C(C)C1Cc2c(cc(O)c3c(=O)c4c(oc23)C(O)Oc2cc(OC)c(OC)cc2-4)O1 (stereo not given) too.
-- reply > 10 µM (inactive)

-- ask Now give it for CCOC(=O)CCC(NC(=O)c1ccc(Nc2cnc3ccc(C(F)(F)F)cc3n2)cc1)C(=O)OCC (stereo not given) too.
-- reply 41 µM (inactive)

-- ask Now give it for CN(C)CCNC(=O)c1cccc2c(NC(CS)C(=O)O)c3ccccc3[n+](C)c12 (stereo not given) too.
-- reply 30.2 µM (inactive)

====

- Test system: K562
- Measurement description: NCI tumour cell line growth inhibition, 48 h
Calls of active or inactive are those of the source. No stated cut-off is given here; in the data, active = GI50 up to about 1.1 µM and inactive = higher.
Tick one outcome: true for active, false for inactive

Below are worked cases with known answers.
CO[C@H](c1ccccc1)[C@H](C)N(C)c1ccc2ccccc2c1C1=NC(C)(C)CO1: false
NC(=O)OCC(COc1ccc(Cl)cc1)OC(=O)c1ccccc1Cl (stereo unspecified): false
C=C1C(=O)[C@@]23CC[C@@H]4[C@@]5(C)CCC[C@@]4(OC5=O)C2(C)CC[C@]1(OC)C3 (stereo partly specified): true
NS(=O)(=O)c1ccc(C(=O)O)cc1 [CARZENIDE]: false
COc1cc(C2=C(C)[C@@H]3CN(CC=C3c3ccc(Cl)cc3)C2)c(S(=O)(=O)O)cc1OC: false
COc1ccc2oc(C(=O)O)c3c2c1CCC3: false
O=C1CCCC2COc3ccc(O)c1c32 (stereo unspecified): false
O=C1Nc2ccccc2/C1=N/N=C1NCCCCN1: false

-- ask Just curious, what result did `O=[N+]([O-])c1ccc(CSc2nncc3[nH]cnc23)cc1` get here?
-- reply false

-- ask Now give it for `Cn1c(-c2ccccc2)c2cc3nc4ccccc4nc3cc2c1-c1ccccc1` too.
-- reply false

-- ask Now give it for `O=C/C(=C(/Br)I)c1ccccc1` too.
-- reply true

-- ask Now give it for `C=C(C)[C@H]1C[C@@H]2O[C@@](O)(/C(C)=C\C(=O)/C=C(/C)C[C@H]3OC(=O)[C@@]24O[C@H]34)[C@@H]1O` too.
-- reply false

-- ask Now give it for `CN(C)c1ccc(/C=N/Nc2nc3ccccc3c(=O)n2-c2ccccc2)cc1` too.
-- reply false

-- ask Now give it for `COc1ccccc1/C=C/C(=O)c1sc(-c2cccnc2)nc1C` too.
-- reply false

-- ask Now give it for `C/C(=C1/N=C(c2cc([N+](=O)[O-])ccc2Cl)N(c2ccc(Br)cc2)C1=O)c1ccc(N(CCC#N)CCC#N)cc1C` too.
-- reply false

-- ask Now give it for CC12CC3CC/C(=N\O)C(C1)C3(N1CCOCC1)C/C2=N/O (stereo unspecified) too.
-- reply false
